protocol.details: recombinant barcode read abundance after kanamycin selection (control-corrected) (log10(CPM+1)); higher = more efficient recombination; sequences stand for … in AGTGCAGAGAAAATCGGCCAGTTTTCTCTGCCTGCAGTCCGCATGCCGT…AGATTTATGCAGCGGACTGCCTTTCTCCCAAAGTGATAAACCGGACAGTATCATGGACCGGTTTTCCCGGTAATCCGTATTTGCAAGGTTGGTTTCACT; site = the 11-nt target;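 note: IS621 recombinase and bridge RNA in Escherichia coli cells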
measured.quantity: recombinant barcode read abundance (log10)

{"input.sequence": "TCTCGGACTTGGGTTCTAACCTGTTGCCT (site TCTCGGACTAG)", "numeric.readout": 0.249}
{"input.sequence": "TCCCGATCTTGGGTTCTAACCTGTTGCCT (site TCCCGAGCTAG)", "numeric.readout": 0.065}
{"input.sequence": "GCCTGCCCTTGGGTTCTAACCTGTTGCCT (site GGCTGCCCTAG)", "numeric.readout": 0.0211}
{"input.sequence": "TTAGGGTCTTGGGTTCTAACCTGTTGCCT (site TTAGGGTCTAG)", "numeric.readout": 2.15}
{"input.sequence": "CAGTGGACTTGGGTTCTAACCTGTTGCCT (site CACTGGACTAG)", "numeric.readout": 0.101}
{"input.sequence": "TAGTGCTCTTGGGTTCTAACCTGTTGCCG (site TAGTGCTCTCG)", "numeric.readout": 1.24}
{"input.sequence": "CATAGCGCTTGGGTTCTAACCTGTTGCCT (site AGCTTGCCTCT)", "numeric.readout": 0.0679}
{"input.sequence": "TCGAACCCTTGGGTTCTAACCTGTTGCCT (site TCGAATCCTAG)", "numeric.readout": 0.151}
{"input.sequence": "GAATATTCTTGGGTTCTAACCTGTTGCTT (site GAATATTCTAA)", "numeric.readout": 0.206}
{"input.sequence": "TGTCTGGCTTGGGTTCTAACCTGTTGCCT (site TGTCTGGCTAG)", "numeric.readout": 0.0185}
{"input.sequence": "TCATTAGCTTGGGTTCTAACCTGTTGCCG (site TCATTAGCTCG)", "numeric.readout": 0.315}
{"input.sequence": "TGCAATACTTGGGTTCTAACCTGTTGCAT (site ACAGTATCTCA)", "numeric.readout": 0.054}
{"input.sequence": "TTGCCGACTTGGGTTCTAACCTGTTGCCA (site TTGGCGACTTG)", "numeric.readout": 0.0806}
{"input.sequence": "GGGGCACCTTGGGTTCTAACCTGTTGCAT (site GGGGCACCTAC)", "numeric.readout": 0.357}
{"input.sequence": "TAGAACACTTGGGTTCTAACCTGTTGCTT (site TAGAACACTAA)", "numeric.readout": 0.16}
{"input.sequence": "CCAGAGTCTTGGGTTCTAACCTGTTGCCG (site CCAGAGTCTCG)", "numeric.readout": 0.288}
{"input.sequence": "CACCCTACTTGGGTTCTAACCTGTTGCCT (site TACCCTACTAG)", "numeric.readout": 0.0523}
{"input.sequence": "GACCGTGCTTGGGTTCTAACCTGTTGCCT (site GACCGCGCTAG)", "numeric.readout": 0.103}
{"input.sequence": "GAACCTTCTTGGGTTCTAACCTGTTGCCT (site GAACCTTCTAG)", "numeric.readout": 0.695}
{"input.sequence": "ACCGCTTCTTGGGTTCTAACCTGTTGCCT (site ATCGCTTCTAG)", "numeric.readout": 0.329}
{"input.sequence": "GAGCCGACTTGGGTTCTAACCTGTTGCCT (site GAGCCGACTAG)", "numeric.readout": 1.56}
{"input.sequence": "GGCACCGCTTGGGTTCTAACCTGTTGCCT (site GGCACTGCTAG)", "numeric.readout": 0.0527}
{"input.sequence": "CGTGACCCTTGGGTTCTAACCTGTTGCTT (site CGGGACCCTAG)", "numeric.readout": 0.0226}
{"input.sequence": "TAAACAGCTTGGGTTCTAACCTGTTGCCT (site TAGACAGCTAG)", "numeric.readout": 0.171}
{"input.sequence": "GGCGTCACTTGGGTTCTAACCTGTTGCCT (site GGCGTCACTAG)", "numeric.readout": 1.24}
{"input.sequence": "GTCGGAGCTTGGGTTCTAACCTGTTGCCG (site GTCGGAGCTCC)", "numeric.readout": 0.152}
{"input.sequence": "CAAGACCCTTGGGTTCTAACCTGTTGCCT (site CAGGACCCTAG)", "numeric.readout": 1.05}
{"input.sequence": "ATGGTGCCTTGGGTTCTAACCTGTTGCCT (site ATGGTGGCTAG)", "numeric.readout": 0.417}
{"input.sequence": "TTGCCTTCTTGGGTTCTAACCTGTTGCCT (site TCGCCTTCTAG)", "numeric.readout": 0.0687}
{"input.sequence": "ACTTAGACTTGGGTTCTAACCTGTTGCGG (site TCTTAGACTCC)", "numeric.readout": 0.416}
{"input.sequence": "GGGCCGGCTTGGGTTCTAACCTGTTGCCG (site GGGCCGGCTCG)", "numeric.readout": 1.14}
{"input.sequence": "CGAGGGCCTTGGGTTCTAACCTGTTGCCT (site CGAGGGCCTAG)", "numeric.readout": 0.603}
{"input.sequence": "CTCCCGACTTGGGTTCTAACCTGTTGCGC (site AGAGTAGCTTA)", "numeric.readout": 0.119}
{"input.sequence": "ATTTCGACTTGGGTTCTAACCTGTTGCCT (site ATTTCGACTAG)", "numeric.readout": 0.16}
{"input.sequence": "CTTACGGCTTGGGTTCTAACCTGTTGCCT (site CTTACGGCTAG)", "numeric.readout": 0.0569}
{"input.sequence": "GCGGCTCCTTGGGTTCTAACCTGTTGCAT (site GCGGCTCCTAT)", "numeric.readout": 1.55}
{"input.sequence": "AAGTGGTCTTGGGTTCTAACCTGTTGCTA (site TGAGTCCCTCT)", "numeric.readout": 0}
{"input.sequence": "ATTAGGGCTTGGGTTCTAACCTGTTGCCG (site ATTAGGGCTCG)", "numeric.readout": 0.413}
{"input.sequence": "CGAGTGACTTGGGTTCTAACCTGTTGCAG (site ATTAACTCTAG)", "numeric.readout": 0.0869}
{"input.sequence": "GGAGAAGCTTGGGTTCTAACCTGTTGCCT (site GGAGATGCTAG)", "numeric.readout": 0.158}
{"input.sequence": "TGAGGGTCTTGGGTTCTAACCTGTTGCTT (site GGAGGGTCTAA)", "numeric.readout": 0.0368}
{"input.sequence": "ACCCTTACTTGGGTTCTAACCTGTTGCCT (site AGCCTTACTAG)", "numeric.readout": 0.00699}

Source of measurements: the supplement of paper PMC11208160
